- Tested On: FLT3 wild type (Homo sapiens)
- Construct: purchased Reaction Biology Corp. (Kinase HotSpot service)
- Run Description: Reaction Biology Kinase HotSpot radiometric kinase assay
- Type: biochemical
- Condition Info: ATP 10 µM; read-out: FLT3 IC50
pIC50: −log10 of the molar value.
Readout: pIC50

Field: example entries. Status: answers known.
Cc1cn(-c2cc(C(=O)Nc3ccc4[nH]c(-c5ccc6cn[nH]c6c5)nc4c3)cc(C(F)(F)F)c2)cn1
6.19
O=C(Nc1ccc2[nH]c(-c3ccc4cn[nH]c4c3)nc2c1)c1ccc(Cl)c(Cl)c1
6.29
CC(C)(C)c1cc(NC(=O)Nc2ccc3[nH]c(-c4ccc5cn[nH]c5c4)nc3c2)no1
5.93

a: CCN1CCC(Nc2cc(C(=O)Nc3ccc4[nH]c(-c5ccc6cn[nH]c6c5)nc4c3)cc(C(F)(F)F)c2)CC1
b: O=C(Nc1ccc2[nH]c(-c3ccc4cn[nH]c4c3)nc2c1)c1ccc(Cl)c(C(F)(F)F)c1
Task item: # query: argmin of pIC50 over a and b Returns: label corresponding to the selected item.
Reply: b
(b: 6.17, a: 6.55)

====

- Tested On: FLT3 (ITD)-W51 (Homo sapiens, UniProt P36888, DUP595-601)
- Run Description: Reaction Biology Kinase HotSpot radiometric kinase assay
Readout: pIC50
pIC50 field: float, defined as -log10 of concentration (mol/L).

Task item: Lab request: please report pIC50 under test system FLT3 (ITD)-W51 (Homo sapiens, UniProt P36888, DUP595-601) for CCN1CCN(Cc2cc(C(=O)Nc3ccc4[nH]c(-c5ccc6cn[nH]c6c5)nc4c3)cc(C(F)(F)F)c2)CC1
Reply: 7.64

====

- Tested On: FLT3 (R595_E596 ins EY) (Homo sapiens, UniProt P36888, INS595EY)
- Run Description: Reaction Biology Kinase HotSpot radiometric kinase assay
Readout: IC50 (nM)
# value in nM; strip the unit string

Task item: Dear colleague, I am looking for the recorded IC50 of the following compound: CCN1CCN(Cc2cc(C(=O)Nc3ccc4[nH]c(-c5ccc6cn[nH]c6c5)nc4c3)cc(C(F)(F)F)c2)CC1
Reply: 24.8

====

- Tested On: FLT3 (D835Y) (Homo sapiens, UniProt P36888, D835Y)
- Sequence (P36888 27-993 D835Y): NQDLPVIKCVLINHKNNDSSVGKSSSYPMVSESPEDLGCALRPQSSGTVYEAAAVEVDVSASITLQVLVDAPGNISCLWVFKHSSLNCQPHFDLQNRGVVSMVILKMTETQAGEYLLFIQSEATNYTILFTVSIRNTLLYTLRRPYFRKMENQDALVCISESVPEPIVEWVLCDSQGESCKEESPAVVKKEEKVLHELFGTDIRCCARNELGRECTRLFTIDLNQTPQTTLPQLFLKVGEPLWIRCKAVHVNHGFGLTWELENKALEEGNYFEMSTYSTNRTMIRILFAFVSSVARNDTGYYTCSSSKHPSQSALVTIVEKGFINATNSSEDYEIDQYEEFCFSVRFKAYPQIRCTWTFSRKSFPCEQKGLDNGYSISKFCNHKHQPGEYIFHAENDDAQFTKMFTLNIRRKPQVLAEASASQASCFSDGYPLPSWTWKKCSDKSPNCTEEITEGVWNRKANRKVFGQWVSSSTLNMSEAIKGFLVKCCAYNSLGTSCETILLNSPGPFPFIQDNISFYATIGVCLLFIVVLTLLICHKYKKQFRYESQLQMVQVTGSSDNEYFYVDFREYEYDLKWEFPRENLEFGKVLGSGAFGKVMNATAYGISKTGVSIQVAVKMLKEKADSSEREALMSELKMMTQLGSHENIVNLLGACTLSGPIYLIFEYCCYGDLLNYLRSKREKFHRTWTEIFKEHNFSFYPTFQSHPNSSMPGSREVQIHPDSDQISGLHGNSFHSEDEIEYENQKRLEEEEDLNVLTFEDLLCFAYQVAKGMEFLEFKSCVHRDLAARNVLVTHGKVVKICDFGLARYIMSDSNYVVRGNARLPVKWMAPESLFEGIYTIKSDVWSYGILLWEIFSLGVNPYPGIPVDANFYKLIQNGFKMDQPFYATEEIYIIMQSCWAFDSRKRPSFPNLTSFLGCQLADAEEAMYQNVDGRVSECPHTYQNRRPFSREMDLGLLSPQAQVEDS
- Run Description: Reaction Biology Kinase HotSpot radiometric kinase assay
pIC50: −log10 of the molar value.
Readout: pIC50

Example entries begin here.
CC(C)(C)c1cc(C(=O)Nc2ccc3[nH]c(-c4ccc5cn[nH]c5c4)nc3c2)no1 [8h]
7.09
CN1CCN(c2ccc(C(=O)Nc3ccc4[nH]c(-c5ccc6cn[nH]c6c5)nc4c3)cc2C(F)(F)F)CC1 [8e]
7.36
CC(C)(C)c1cc(NC(=O)Nc2ccc3[nH]c(-c4ccc5cn[nH]c5c4)nc3c2)no1 [8l]
6.58
CN1CCC(Oc2ccc(C(=O)Nc3ccc4[nH]c(-c5ccc6cn[nH]c6c5)nc4c3)cc2C(F)(F)F)CC1 [8x]
6.84
O=C(Nc1ccc2[nH]c(-c3ccc4cn[nH]c4c3)nc2c1)c1ccc(N2CCOCC2)c(C(F)(F)F)c1 [8f]
6.43

P: O=C(Nc1ccc(Cl)c(Cl)c1)Nc1ccc2[nH]c(-c3ccc4cn[nH]c4c3)nc2c1 [8m]
Q: CCN1CCN(Cc2ccc(C(=O)Nc3ccc4[nH]c(-c5ccc6cn[nH]c6c5)nc4c3)cc2C(F)(F)F)CC1 [8w]
Task item: Between these two entries, P and Q , state which has the higher pIC50. Kindly give the label for the entry you pick.
Reply: Q
